assay: Physicochemical properties: absorption and fluorescence (Table 1); conditions: emission wavelength, determined in 95% ethanol
quantity: Em. (nm)
Quick note: unit goes after the number.

| structure | Em. (nm) |
| --- | --- |
| N[C@@H](Cc1cc(=O)oc2cc(O)cc(O)c12)C(=O)O.O=C(O)C(F)(F)F | 463 nm |
| COc1cc(OC)c2c(C[C@H](N)C(=O)O)cc(=O)oc2c1.O=C(O)C(F)(F)F | 419 nm |
| CCOc1ccc2c(C[C@H](N)C(=O)O)cc(=O)oc2c1.O=C(O)C(F)(F)F | 387 nm |

Next item in the queue.
State, in one line, measured Em. (nm) of COc1ccc2c(C[C@H](N)C(=O)O)cc(=O)oc2c1.CS(=O)(=O)O
383 nm
